molecular target: TNFα (Homo sapiens); test: TNF induced HEK-Blue assay (NF-kB-driven secreted alkaline phosphatase reporter); type: cell-based; conditions: TNFα 0.5 ng/mL, HEK-Blue-CD40L cells, 18 h; read-out: TNF induced HEK-Blue assay IC50 value
Documented IC50 across a set of molecules
RESULT_TYPE: IC50

MOLECULE	TEST_RESULT
CC(Nc1c(Cl)cnc2cc(F)c(-c3cnc(C(O)CN4CCOCC4)cn3)cc12)c1ccccc1F (stereo not drawn) [Example 273]	< 1000 nM
C[C@@H](Nc1c(Cl)cnc2ccc(-c3ccc(C4(N)CCC4)cc3)cc12)c1ccccc1F	< 1000 nM
CC(Nc1c(Cl)cnc2cc(F)c(-c3cnc(N4CCN(C(=O)[C@@H](N)CO)CC4)nc3)cc12)c1ccccc1F (single isomer, unassigned)	< 1000 nM
CCc1ncc(-c2ccc3ncc(Cl)c(N[C@H](C)c4ccccc4F)c3c2)cn1	10000 to 25000 nM
Cc1cnc2ccc(-c3cnc(C(C)(C)O)nc3)cc2c1N[C@H](C)c1ccccc1F	< 1000 nM
CC(C)(O)c1ncc(-c2ccc3ncc(Cl)c(NC(CCF)c4ccccc4F)c3c2)cn1 (racemic)	< 1000 nM
CC(Nc1c(Cl)cnc2cc(F)c(-c3ccc(C(O)CO)cc3)cc12)c1cc(C(N)=O)ccc1F (single isomer, unassigned)	< 1000 nM
CC(C)(O)c1ncc(-c2ccc3ncc(Cl)c(NC(c4ccccc4F)C4CC4)c3c2)cn1 (racemic)	< 1000 nM
C[C@@H](Nc1c(Cl)cnc2ccccc12)c1cc(-c2ccnc3[nH]ccc23)ccc1F	1000 to 10000 nM
CC(C)(O)c1ncc(-c2nc3c(N[C@H](c4cc(CO)ccc4F)C(F)F)c(Cl)cnc3cc2F)cn1	< 1000 nM
Cc1ccc(F)c([C@@H](C)Nc2c(Cl)c(C)nc3ccc(-c4cnc(C(C)(C)O)nc4)cc23)c1	< 1000 nM
Cc1nc2ccc(-c3ccc(C(C)(C)O)cc3)cc2c(NC(C)c2cccs2)c1Cl (stereo not drawn)	1000 to 10000 nM
Cc1ccc(C)c(Nc2c(Cl)c(C(=O)Nc3ccncc3)nc3ccc(-c4ccc(C#N)nc4)cc23)c1	< 1000 nM
CC(Nc1c(Cl)cnc2cc(F)c(-c3cnc(N4CCC(CC(=O)O)CC4)nc3)cc12)c1ccccc1F (racemic)	< 1000 nM
C=CC[C@@H](Nc1c(Cl)cnc2ccc(-c3cnc(C(C)(C)O)nc3)cc12)c1cc(Cl)ccn1	< 1000 nM

###

biological target: TNFα (Homo sapiens, UniProt P01375); assay: TNF induced HEK-Blue assay (NF-kB-driven secreted alkaline phosphatase reporter); format: cell-based; details: TNFα 0.5 ng/mL, HEK-Blue-CD40L cells, 18 h; read-out: TNF induced HEK-Blue assay IC50 value
Sequence (P01375 77-233 limits assumed): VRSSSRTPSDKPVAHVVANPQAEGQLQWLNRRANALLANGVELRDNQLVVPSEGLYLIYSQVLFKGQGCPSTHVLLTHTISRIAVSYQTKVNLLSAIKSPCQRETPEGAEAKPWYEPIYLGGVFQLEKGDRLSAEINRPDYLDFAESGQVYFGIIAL

MOLECULE	IC50
C[C@@H](Nc1c(Cl)c(C(=O)Nc2cccnc2)nc2ccc(-c3cnc(C(C)(C)O)nc3)cc12)c1cc(C#N)ccc1F [Example 385]	1 to 10 µM
Cc1ccc(C)c(Nc2c(Cl)c(C(=O)Nc3cccnc3)nc3ccc(-c4ccc(C(N)=O)nc4)cc23)c1 [Example 37]	10 to 25 µM
C[C@@H](Nc1c(Cl)cnc2ccc(Br)cc12)c1cc(-c2cncnc2)ccc1F [Example 532]	< 1 µM
C[C@@H](Nc1c(Cl)cnc2cc(F)c(-c3cnc(C(C)(C)O)nc3)nc12)c1cc(C(N)=O)ccc1F [Example 583]	< 1 µM
Cc1ccc(C)c(Nc2c(Cl)c(C)nc3ccc(-c4ccc(C(=O)NCCCCN)nc4)cc23)c1 [Example 65]	1 to 10 µM
Cc1nc2ncccc2c(N[C@H](C)c2cc(-c3cncnc3)ccc2F)c1Cl [Example 556]	10 to 25 µM
C[C@@H](Nc1c(Cl)cnc2ccc(-c3ccc(C(N)CC(=O)O)cc3)cc12)c1ccccc1F (mixture of isomers) [Example 115]	1 to 10 µM

###

Catalogue of pIC50 values
molecular target: UniProt:P01375; experiment: TNF induced HEK-Blue assay (NF-kB-driven secreted alkaline phosphatase reporter); format: cell-based; conditions: TNFα 0.5 ng/mL, HEK-Blue-CD40L cells, 18 h; read-out: TNF induced HEK-Blue assay IC50 value
pIC50: −log10 of the molar value.

MOLECULE	pIC50
CC(C)(O)CNc1ncc(-c2ccc3ncc(Cl)c(N[C@@H](c4ccccc4F)C(F)F)c3c2)cn1	> 6.00
C[C@@H](Nc1c(Cl)cnc2ccc(-c3cnc(C(C)(C)O)nc3)cc12)c1cc(-c2ncccn2)ccc1F	> 6.00
C[C@@H](Nc1c(Cl)cnc2ccc(-c3ccc(CO)cc3)cc12)c1ccccc1F	4.60 to 5.00
CC(Nc1c(Cl)cnc2cc(F)c(-c3ccc(C4(CO)CC4)cc3)cc12)c1ccccc1F (racemic) [Example 264]	> 6.00
CC(Nc1c(Cl)cnc2cc(F)c(-c3cnc(C(C)(C)O)nc3)nc12)c1cccc(N)c1 (racemic)	> 6.00
CC(Nc1c(Cl)cnc2cc(F)c(-c3cnc(N4CCN(C(=O)[C@H](N)CC(=O)O)CC4)nc3)cc12)c1ccccc1F (single isomer, unassigned)	> 6.00
CC(Nc1c(Cl)cnc2ccc(-c3cnc(N4CCNC(=O)C4)nc3)cc12)c1nc(C(=O)Nc2ccccc2)ccc1F (racemic)	5.00 to 6.00
Cc1nc2ccc(-c3cnc(C(C)(C)O)nc3)cc2c(N[C@H](C)c2cc(CO)ccc2F)c1Cl	> 6.00
CC(C)(O)c1ncc(-c2nc3c(N[C@@H](c4cc(C#N)ccc4F)C(F)F)c(Cl)cnc3cc2F)cn1	> 6.00
CC(Nc1c(Cl)cnc2ccc(-c3cnc(C(C)(C)O)nc3)cc12)[C@@H]1CCCN(C(N)=O)C1 (single isomer, unassigned)	5.00 to 6.00
C=Cc1ccc(F)c([C@@H](C)Nc2c(Cl)cnc3cc(F)c(-c4cnc(C(C)(C)O)nc4)nc23)c1	> 6.00
C[C@@H](Nc1c(Cl)cnc2ccc(-c3cnc(C(C)(C)O)nc3)cc12)c1cc(C(O)CO)ccc1F (single isomer, unassigned) [Example 400]	> 6.00
CC(C)(O)c1ncc(-c2ccc3ncc(Cl)c(NCc4ccc(OC(F)F)cc4)c3c2)cn1	5.00 to 6.00
COC(=O)C1CCN(c2ncc(-c3cc4c(N[C@H](C)c5ccccc5F)c(Cl)cnc4cc3F)cn2)C1 (mixture of isomers)	> 6.00
O=C(O)CC1CCN(c2ncc(-c3ccc4ncc(Cl)c(N[C@@H](c5ccccc5F)C(F)F)c4c3)cn2)CC1	> 6.00
Cc1ncc(-c2ccc(F)c([C@@H](C)Nc3c(Cl)c(C)nc4ccccc34)c2)cn1	> 6.00
COC(=O)c1ccc(F)c([C@@H](C)Nc2c(Cl)cnc3ccc(-c4cnc(C(C)(C)O)nc4)cc23)c1	> 6.00
COC(=O)CN1CCN(c2ncc(-c3ccc4ncc(Cl)c(N[C@@H](c5ccccc5F)C(F)F)c4c3)cn2)CC1	> 6.00
Cc1nc2ccc(-c3cnc(C(C)(C)O)nc3)cc2c(NC(C)c2ccccc2F)c1F (racemic)	4.60 to 5.00
Cc1nc2cc(F)c(-c3cnc(C(C)(C)O)nc3)nc2c(N[C@H](C)c2cc(CO)ccc2F)c1Cl	> 6.00
C[C@@H](Nc1c(Cl)cnc2ccc(-c3cnc(C(C)(C)O)nc3)cc12)c1cc(N2CCOCC2=O)ccc1F	> 6.00
Cc1ccc(C)c(Nc2c(Cl)c(N)nc3ccc(-c4cnc(NC(CO)CO)nc4)cc23)c1	> 6.00
CCNC(=O)c1ccc(F)c(C(C)Nc2c(Cl)cnc3ccc(-c4cnc(N5CCNC(=O)C5)nc4)cc23)n1 (racemic)	> 6.00
C[C@@H](Nc1c(Cl)cnc2cc(F)c(-c3cnc(C(C)(C)O)nc3)nc12)c1cc(C#N)ccc1F	> 6.00
COc1ccc(F)c([C@@H](C)Nc2c(Cl)c(C)nc3ccccc23)c1	5.00 to 6.00
Cc1nc2ccc(-c3cnc(C(C)(C)O)nc3)cc2c(C(O)C(C)CC(C)C)c1Cl (single isomer, unassigned)	5.00 to 6.00
OC[C@@H]1CN(c2ncc(-c3ccc4ncc(Cl)c(N[C@@H](c5ccccc5F)C(F)F)c4c3)cn2)CCO1	> 6.00
C[C@@H](Nc1c(Cl)cnc2ccc(-c3ccc(CC(N)C(=O)O)cc3)cc12)c1ccccc1F (mixture of isomers)	5.00 to 6.00

###

Target: TNFα (Homo sapiens)
Assay: TNF induced HEK-Blue assay (NF-kB-driven secreted alkaline phosphatase reporter)
Type: cell-based
Details: TNFα 0.5 ng/mL, HEK-Blue-CD40L cells, 18 h; read-out: TNF induced HEK-Blue assay IC50 value
Method: TNF or CD40L-Induced HEK-Blue Assay Test compounds serially diluted in DMSO were plated in an assay plate (LABCYTE, Cat. # LP-0200) at final concentrations ranging from 0.004 μM to 25 μM. […] Secreted alkaline phosphatase expression was measured using QUANTI-Blue™ (INVIVOGEN, Cat. Code rep-qb1) according to manufacturer's specifications and the assay plate was read on a PerkinElmer Envision at 620 nm. […]
pIC50: −log10 of the molar value.
RESULT_TYPE: pIC50

MOLECULE	TEST_RESULT
CC(Nc1c(Cl)cnc2ccc(-c3ccc(C(C)(C)O)cc3)cc12)c1cccs1 (racemic)	> 6.00
Cc1nc2ccc(-c3cnc(C(C)(C)O)nc3)cc2c(NC(C)c2ccccc2F)c1Cl (racemic)	> 6.00
C[C@@H](Nc1c(Cl)cnc2ccc(-c3cnc(N4CCN(Cc5nn[nH]n5)CC4)nc3)cc12)c1ccccc1F	> 6.00
C[C@@H](Nc1c(Cl)cnc2ccc(-c3cnc(C(C)(C)O)nc3)cc12)c1cc(-n2cnnc2)ccc1F	> 6.00
Cc1nc2c(F)cc(-c3cnc(C(C)(C)O)nc3)cc2c(N[C@H](C)c2cc(C#N)ccc2F)c1Cl	> 6.00
C[C@@H](Nc1c(Cl)cnc2ccc(-c3cnc(C(C)(C)O)nc3)cc12)c1cc(S(N)(=O)=O)ccc1F	> 6.00
O=C(O)[C@@H]1CN(c2ncc(-c3ccc4ncc(Cl)c(N[C@@H](c5ccccc5F)C(F)F)c4c3)cn2)CCN1	5.00 to 6.00
COc1ccc(F)c([C@@H](C)Nc2c(Cl)c(C)nc3ccc(Br)cc23)c1	5.00 to 6.00
Cc1nc2cc(F)c(-c3cnc(C(C)(C)O)nc3)nc2c(N[C@H](C)c2cccc(CO)c2)c1Cl	> 6.00
CC(=O)NC1(c2ccc(-c3ccc4ncc(Cl)c(N[C@H](C)c5ccccc5F)c4c3)cc2)CCC1	4.60 to 5.00
Cc1nc2c(F)cc(-c3cnc(C(C)(C)O)nc3)cc2c(NC(C)c2ccccc2)c1Cl (stereo not drawn)	> 6.00
CNc1ccncc1-c1ccc(F)c([C@@H](C)Nc2c(Cl)cnc3ccccc23)c1	> 6.00
CC(C)(O)c1ncc(-c2ccc3ncc(Cl)c(N[C@H](CCF)c4ccccc4F)c3c2)cn1 (single isomer, unassigned)	> 6.00
COc1nc2ccc(-c3cnc(C(C)(C)O)nc3)cc2c(Nc2cc(C)ccc2C)c1C	4.60 to 5.00
C[C@@H](Nc1c(Cl)cnc2ccc(-c3cnc(C(C)(C)O)nc3)cc12)c1cc(-c2cc(C(=O)O)[nH]n2)ccc1F	4.60 to 5.00

Measured values drawn from patent US10865191B2 for this set.
